Taken from patent US10280150B2.

biological target: IDH1-R132C recombinant protein (Homo sapiens (Human), UniProt O75874, R132C); experiment: IDH1-R132C enzymatic assay (inhibition of NADPH consumption, diaphorase/resazurin readout); details: read-out: Enzyme IDH1 R132C IC50 (Range)
Sequence (O75874 whole entry R132C): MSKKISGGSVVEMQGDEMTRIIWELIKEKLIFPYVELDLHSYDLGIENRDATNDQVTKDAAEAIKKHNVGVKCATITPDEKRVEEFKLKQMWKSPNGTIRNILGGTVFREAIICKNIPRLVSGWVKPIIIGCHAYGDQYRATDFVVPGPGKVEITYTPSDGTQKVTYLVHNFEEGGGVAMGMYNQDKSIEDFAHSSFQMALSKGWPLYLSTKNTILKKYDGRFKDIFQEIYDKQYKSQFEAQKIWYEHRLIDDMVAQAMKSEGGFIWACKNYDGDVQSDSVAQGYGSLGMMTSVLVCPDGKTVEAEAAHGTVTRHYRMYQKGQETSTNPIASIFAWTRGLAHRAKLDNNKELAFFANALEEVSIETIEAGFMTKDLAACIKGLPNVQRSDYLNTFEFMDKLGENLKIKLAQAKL
pIC50: −log10 of the molar value.
propertyLabel: pIC50

# input Report pIC50 for C[C@H](Nc1nccc(-c2cncn2Cc2ccccc2)n1)c1cc2cc(Cl)ccc2[nH]c1=O please.
# output > 7.00

# input Thanks! And COc1cc2[nH]c(=O)c(C(C)Nc3nccc(N4CCOC4=O)n3)cc2cc1Cl (centres unmarked) ?
# output 6.00 to 7.00

# input Thanks! And C[C@H](Nc1nccc(-n2ccnc2)n1)c1cc2cc(Cl)ccc2[nH]c1=O ?
# output 5.00 to 6.00

# input Thanks! And C[C@H](Nc1nccc(-c2ccn[nH]2)n1)c1cc2cc(Cl)ccc2[nH]c1=O ?
# output 5.00 to 6.00

# input Thanks! And Cc1nnnn1-c1ccnc(N[C@@H](C)c2cc3cc(Cl)ccc3[nH]c2=O)n1 ?
# output 6.00 to 7.00

# input Thanks! And COc1nc(N[C@H](C)c2cc3cc(Cl)c(F)cc3[nH]c2=O)ncc1C#N ?
# output < 5.00

# input Thanks! And C[C@H](Nc1nccc(N2CCCS2(=O)=O)n1)c1cc2cc(Cl)ccc2[nH]c1=O ?
# output 5.00 to 6.00

# input Thanks! And C[C@H](Nc1nccc(N2CCCC2=O)n1)c1cc2cc(Cl)ccc2[nH]c1=O ?
# output 6.00 to 7.00
